Kindly supply the reported PBM binding z-score values for the records listed here.
- Test system: LXRb homodimer (NR concentration 270 nM)
- TEST_METHOD_NOTES: PBM binding z-score (relative to random genomic background probes); higher = stronger binding; sequences stand for … in GC…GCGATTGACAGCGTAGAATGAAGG
No unit in the answer, please; the number alone is enough.

Value wanted: PBM binding z-score (LXRb homodimer (NR concentration 270 nM)) of entry TCTAGTTGGTCGCGGAGGTCACACACGACGGGTA 0.671

Item: CAAACTAGGTCAAGGTCAAATTCGGTTTGTGCCA Test system: LXRb homodimer (NR concentration 270 nM) Read-out: PBM binding z-score Value: ? 2.23

Entry CGAACTAGGTCAAAGGACAGTGTAAGGCGACGTA , system LXRb homodimer (NR concentration 270 nM): what PBM binding z-score was measured? -0.314

###

- System: THRa:RXRa (NR concentration 90 nM, RXRa partner concentration 90 nM)
- TEST_METHOD_NOTES: PBM binding z-score (relative to random genomic background probes); higher = stronger binding; sequences stand for … in GC…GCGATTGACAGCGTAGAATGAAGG
MEASURED_ENDPOINT: PBM binding z-score
Just the number, please.

Look at this sequence and give its reported PBM binding z-score. GGAACGGGGGCATTCGAGTTGATAGCATGGCGAT 4.15

Would you mind telling me what PBM binding z-score value was observed for CTCGAAAGGTCGTCCTCAGGTGAGTATACCAAAC ? 4.13

Using the record for CCGAGTAGGTTTCGAGGGGGCATTCAGTGCGAAT , report its PBM binding z-score. 2.37

Sample TCGAGTAGGTTACGGGGGCATACAGGGATGAAGA — what was its PBM binding z-score? 3.53

Quick one: PBM binding z-score for CGAACTAGGTCAACGGACAGTGAAAGGCGACGTA ? 2.36

What value of PBM binding z-score has been reported for the following sequence? CGAACTAGGTCACCAGGACAGCGAAGAGGTTGGA 3.27

Fill blank: measured PBM binding z-score of the sequence CCGTGTAGGTTACGAGGGGGCATTCAGTGCGAAT is ____. 4.03

Endpoint output: PBM binding z-score of TTACCAAGGTGAAGGTCGTGGATCCCTCTGTAGA . Value? 2.79

I am curious: what PBM binding z-score value has been reported for ACTAGTTGGTCAGCTGAGGTCACACTCAATTCGG ? 5.01

Consider the sequence CTATGTAGGTTAAGCGGGTCATTCAGTTTGAAAG and give its measured PBM binding z-score. 2.56

// query PBM binding z-score value for entry CTCGAAAGGTCGTGGTCAGGTGAGTATACCAAAC 4.01

# lookup: PBM binding z-score of GCTTACGGGTCAAAGGTTAAAGCATGAATAGAAT 4

Look up PBM binding z-score for this sequence: CGAACCAGGTCACCAGGACAGTGAAGAGGTTGGA 3.94

// lookup PBM binding z-score for CGAACTAGGTCAAAGGACAGTGATAGGCGACGTA 2.56

Quick one: PBM binding z-score of TCGAGTAGGTTACGGGGGCAATCAGGGATGAAGA ? 3.4

Any idea what PBM binding z-score was measured for ATATGTAGGTTAGGGTCGTTCAGAAAGTAGGGAA ? 2.85

State the recorded PBM binding z-score for this entry: CGAACTAGGTCACCAGCACAGTGAAGAGGTTGGA 3.1

###

- Tested on: PPARa:RXRa (NR concentration 270 nM, RXRa partner concentration 90 nM)
- TEST_METHOD_NOTES: PBM binding z-score (relative to random genomic background probes); higher = stronger binding; sequences stand for … in GC…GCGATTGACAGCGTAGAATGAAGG
Response key: TRUE means PBM binding z-score >= 5; FALSE means PBM binding z-score < 5.

Answer whether PBM binding z-score of CTATGTAGGTTAAGGGGATCATTCAGTTTGAAAG is greater than or equal to 5. FALSE

Is PBM binding z-score at least 5? Consider GCTAGTGGGTCAGTAAAAGGTCACACACCGGTCG TRUE

Does CGTCCAAGGTCAATGCTAGCTCAGTGAAAGCATT have a reported PBM binding z-score of at least 5? FALSE

Can GATACAGGGTCAGCTTGAGGCCAGAGTATGGAAA be said to have PBM binding z-score at or above 5? FALSE

Check the entry CTAACTAGGTCAAAGGACAGTGAAAGGCGACGTA : does PBM binding z-score equal or exceed 5? TRUE

###

- System: VDR homodimer (NR concentration 270 nM)
- TEST_METHOD_NOTES: PBM binding z-score (relative to random genomic background probes); higher = stronger binding; sequences stand for … in GC…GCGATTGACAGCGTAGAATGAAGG
MEASURED_ENDPOINT: PBM binding z-score
Just the number, please.

Find the recorded PBM binding z-score belonging to TCTGCTGGGTCAACGATGGTCAGCTAATCTGCTA and report it. -0.395

I would be grateful if you could share the reported PBM binding z-score for CCCACTGGGGCAAAGGTTACCATACTCAGTACGA . 0.129

Recorded PBM binding z-score for CGTCAAAGTTCAACTAAGGTAACTTAAAGCACGC , please? 4.08

Look up PBM binding z-score: CGAACTACGTCAAAGGACAGTGAAAGGCGACGTA -0.351

Reported PBM binding z-score, sequence ATATGTAGGTTAGAGTCATTCAGAAAGTAGGGAA : ____ 0.387

Fill in the blank: the reported PBM binding z-score of GGAACGGGGGCAAGTTGATAGCAGAGTTTGATGG is ____. 4.04

Record request: PBM binding z-score value, item GCTGCTAGGTCAACTGAGGGTCAGCTAAAGCTCG 1.36

For CGAACTAGGTCAAAGGAAAGTGAAAGGCGACGTA , what is its reported PBM binding z-score? 0.538

###

Answer each item with its documented PBM binding z-score.
- System: RARa:RXR (NR concentration 270 nM, RXRa partner concentration 90 nM)
- TEST_METHOD_NOTES: PBM binding z-score (relative to random genomic background probes); higher = stronger binding; sequences stand for … in GC…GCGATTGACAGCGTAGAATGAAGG
Please give the numeric answer without any surrounding text.

Which PBM binding z-score is listed for CGTCCAAGGTCAAGGTCACTGAAAGAGACTCGAA ? 6.16

Look up PBM binding z-score: ATCGAAAGGTCGAGTTGAGTATAGAGAAAGGGAA 3.29

Entry CGAACTAGGCCAAAGGACAGTGAAAGGCGACGTA has what PBM binding z-score? -0.24

Reported PBM binding z-score, sequence CAAACTAGGTCACGAAAGGGCAAAGTCGAATGAC : ____ 5.03

Could you share which PBM binding z-score value was measured for CCTTACGGGTCAAGGTTATCGCACGGGTGGTACG ? 4.53

GET /values?readout=PBM binding z-score&item= CGAACTAGGTCACCAGGACAGTGCAGAGGTTGGA 2.58

Look at this sequence and give its reported PBM binding z-score. ATATGTGGGTTAGGGTCATTCAGAAAGTAGGGAA 5.02

Could you share which PBM binding z-score value was measured for TTATCAAGGTGAAAGGTCGTTGATGCACGCCTTG ? 5.9

Entry TTACCAAAGTGAAAGGTCGTTGATGCACGCCTTG : reported PBM binding z-score = ? 2.39

// returns reported PBM binding z-score for input ATCGAAAGGTCGCAGGTGAGTATACCCACCCGAA 3.82

Return reported PBM binding z-score; argument: AGATTGAGGTTACCAAAGATCAGGGAAACGCTTG 2

Recorded PBM binding z-score for CATACCGGGTCAGCTAGGCCAGAGTAGGGACGGC , please? 1.76

What value of measured PBM binding z-score is listed for CTATGTAGGTTAAGGGGGTCATACAGTTTGAAAG ? 5.95

Entry CCTTACGGGTCCCTGACAGGTTATAGCATTTGGA : reported PBM binding z-score = ? -0.0622

Please give the measured PBM binding z-score for this sequence: CTCGAAAGGTCGTGCTTAGGTGAGTATACCAAAC 4.22

Item under review: CGAACTAGGTCAAAGGACAATGAAAGGCGACGTA . Reported PBM binding z-score? 2.52

Any idea what PBM binding z-score was measured for CGAACTAGGTCACCAGGACAGTAAAGAGGTTGGA ? 2.62

Any idea what PBM binding z-score was measured for CCTTACAGGTCACGAGGTTATAGCACGACGAGCG ? 5.38

###

Exercise: for every item that follows, state its recorded PBM binding z-score.
- System: PPARg homodimer (NR concentration 180 nM)
- TEST_METHOD_NOTES: PBM binding z-score (relative to random genomic background probes); higher = stronger binding; sequences stand for … in GC…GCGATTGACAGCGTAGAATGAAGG
Please give only the number in your answer, with no unit.

Returns the measured PBM binding z-score for the input sequence. Input: CCTTACGGGTCACTGACAGCTTATAGCATTTGGA 2.05

Return reported PBM binding z-score; argument: GCTTACGGGTCAAAGGTTATAGTATGAATAGAAT 1.98

// lookup PBM binding z-score for CCGAGTTGGTTACGAGGGGGCATTCAGTGCGAAT 1.98

Form field: reported PBM binding z-score of CGAACTAGGTCACAGGACAGTGAAAGGCGACGTA 2.35

Report PBM binding z-score for TTACCAAGGTGAAAGGTCGGTGATGCACGCCTTG please. 1.26

Look at this sequence and give its reported PBM binding z-score. AATACAGGGTCGCTAGGCCAGAGTAGGTACGAAT 0.213

Return reported PBM binding z-score; argument: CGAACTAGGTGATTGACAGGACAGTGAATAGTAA 0.553

Value lookup for PBM binding z-score; key = CGTACTAGGTCAAAGGACAGTGAAAGGCGACGTA 2.5

Recorded PBM binding z-score of TCGAGTAGGTTAAGGGGGCATTCAGGGATGAAGA , please. 2.85

If you can, please state the reported PBM binding z-score value of CTATGTAGGTTAAGGGGGTCATTCATTTTGAAAG . 2.86

Reported PBM binding z-score, sequence CTATGTAGGTTAAGGGGGTCATTGAGTTTGAAAG : ____ 3.37

Suppose we examine the sequence ACTAGTTGGTCAGCTGAGGTCACACAAAATTCGG ; what PBM binding z-score value has been reported? 3.4

What PBM binding z-score value was documented for this sequence, AGTCAAAGTTCAGGACGAGATAACGTAAAGCACG ? 1.35

What value of PBM binding z-score has been reported for the following sequence? CTTACTGGGCCAAAGGTCATTGATTCCAATGCTC 5.08

// query PBM binding z-score value for entry CCTGCTAGGTCTATGGTCAGCTAAAGCAGCTCGC -0.133

Quick one: PBM binding z-score for CCTACTGGGCCAAAGGTCTTTGATTCCAATGCTC ? 0.366

Requested read-out: PBM binding z-score. Entry: CGAAATAGGTCACCAGGACAGTGAAGAGGTTGGA 1.95

Any idea what PBM binding z-score was measured for ATATGTAGGTTAGGGTCATGCAGAAAGTAGGGAA ? 2.6

Give the measured PBM binding z-score of CGTCGAAGGTCAATGCTAGGTCAGTGAAAGCATT . 4.55

Field request: PBM binding z-score | item: CCTACGGGGCCAAGGTCATTGATCAGTCAAAGCA 2.31

Request the reported PBM binding z-score associated with CAAACTAGGTCACCGGAAGGTCATAGTCCGCATG 4.74

Record request: PBM binding z-score value, item ATATGTAGGTTAGGGTCACTCAGAAAGTAGGGAA 3.25

What does the data say about its PBM binding z-score? Entry: ACAGACAGGTGAGTGAAGGTCACTCAGCTGGACG 1.49

Using the record for CCGAGTAGGTTACGAGGGGCCATTCAGTGCGAAT , report its PBM binding z-score. 0.766

Please look up its PBM binding z-score: CCTACTGGGCCATTCAGAGGTCATCGATCATATG 5.67

Look at this sequence and give its reported PBM binding z-score. TAGCCTAGGTCATTCAGGGGGCAGTATAGAAAGC 4.21

Requested read-out: PBM binding z-score. Entry: CGAACTAGGTCAATGGACAGTGAAAGGCGACGTA 2.53

I'd like to know its PBM binding z-score. The sequence in question is CCTTACGGGTCACTCAAGGTTATAGCATCGGAGT 3.87

Fill blank: measured PBM binding z-score of the sequence ATAGAAAGGTCGAAGGTGAGTATACCCACCCGAA is ____. 1.85

Find the recorded PBM binding z-score belonging to CGTCCAAGGTCAATTCTAGGTCAGTGAAAGCATT and report it. 7.64

Fill in the blank: the reported PBM binding z-score of CGAAGTAGGTCACCAGGACAGTGAAGAGGTTGGA is ____. 1.76

For the sequence shown here, CAGAGTAGGTTACGAGGGGGCATTCAGTGCGAAT , give the reported PBM binding z-score. 1.94

Return reported PBM binding z-score; argument: TTTCCAAGGTGAAAGGTCGTTGATGCACGCCTTG 1.64

Which PBM binding z-score is listed for CGAACTAGGTCAAAGGACAGTGCAAGGCGACGTA ? 0.639

I'd like to know its PBM binding z-score. The sequence in question is GCTTACGGGTCAAAGGTTACAGCATGAATAGAAT 5.3

Find the recorded PBM binding z-score belonging to TCATATAGGTTAAGGTGAAAGTCGAACGATATGA and report it. 1.49

Field request: PBM binding z-score | item: ATATGTAGGTGAAGGGTCATTCAGGTTGGTTCGC 6.22

Looking for the measured PBM binding z-score of CCGAGTAGGTTACGAGGGGGCATACAGTGCGAAT , can you help? 2.45

Record request: PBM binding z-score value, item CGTCCAAGGTCACAGGAGGTCAGTGAAGACAGAT 4.98
